The reader will find reported GI50 values listed item by item below.
Tested on: UACC-62 melanoma
Experiment: NCI tumour cell line growth inhibition, 48 h

# compound.string, GI50
rows = [
    ("C/C=C(\\C)C(=O)O[C@@H]1C=CC(=O)O[C@H]1CNC(=O)[C@H](C)O", "16900 nM"),
    ("Cc1ccc(/C(=C/C=C(C#N)C#N)Sc2nc3ccccc3s2)cc1", "2600 nM"),
    ("O=C(Nc1ccc(Cl)cc1)N1CCN(c2ccc3nncn3n2)CC1", "21700 nM"),
    ("Cn1cc(-c2nc(-c3cn(C)c4ncccc34)cs2)c2ccccc21", "1350 nM"),
    ("CC1(C)CC[C@]2(CO)CC[C@]3(C)C(=CC[C@@H]4[C@@]5(C)CCNCC(C)(C)[C@@H]5CC[C@]43C)[C@@H]2C1", "2770 nM"),
    ("CCOC(=O)CCSC1=CC(=O)c2nc3ccccc3c3ccnc1c23", "15800 nM"),
    ("O=C(CCl)Nc1ccc(Cc2ccc(NC(=O)CCl)cc2)cc1", "1530 nM"),
    ("CC(=O)[CH-]C(=O)c1ccccc1.CC(=O)[CH-]C(=O)c1ccccc1.CC(=O)[CH-]C(=O)c1ccccc1.[Br-].[Zr+4]", "> 100000 nM"),
    ("CC(=O)/C=C/c1ccc(N(CCO)Cc2ccc(C(C)(C)C)cc2)cc1", "46600 nM"),
    ("CC(=O)c1ccc(Oc2c3ccccc3nc3occc23)cc1", "2110 nM"),
]
